# measured-on: recombinant human ATX beta isoform with N-terminal purification tag (human, UniProt Q13822 49-863)
# test-protocol: ELISA, Fab-His captured by anti-Fd, 5 nM biotinylated human ATX beta
Entries annotated with measured Fab Binding

Below, 4 binders whose answers are already recorded.
| binder | experimental-endpoint | result |
| --- | --- | --- |
| Fab F13 (VH H2, VL L11) (Fab, V domains shown, Soluble Fab-His) VH: QVQLVQSGAEVKKPGSSVKVSCKASGGTFSSYAISWVRQAPGQGLEWMGGIIPIFGTANYAQKFQGRVTITADESTSTAYMELSSLRSEDTAVYYCARDDLPLGRLDYWGQGTLVTVSS VL: EIVLTQSPATLSLSPGERATLSCRASQSVADWLAWYQQKPGQAPRLLIYNASNRATGIPARFSGSGSGTDFTLTISSLEPEDFAVYYCQQYIRWPITFGQGTKVEIK | Fab Binding | 1.1e+06 relative chemiluminescence units |
| Fab F17 (VH H11, VL L14) (Fab, V domains shown, Soluble Fab-His (E. coli supernatant); converted to mAb B3) VH: EVQLVQSGAEVKKPGESLKISCKGSGYSFTSYWIGWVRQMPGKGLEWMGIIYPGDSDTRYSPSFQGQVTISADKSISTAYLQWSSLKASDTAMYYCARPYGTFDYWGQGTLVTVSS VL: EIVLTQSPATLSLSPGERATLSCRASQSVADSLAWYQQKPGQAPRLLIYKASNRATGIPARFSGSGSGTDFTLTISSLEPEDFAVYYCQQSNGWPRTFGQGTKVEIK | Fab Binding | 2.4e+07 relative chemiluminescence units |
| Fab F78 (VH H73, VL L73) (Fab, V domains shown, Soluble Fab-His) VH: QVQLVQSGAEVKKPGSSVKVSCKASGGTFSSYAISWVRQAPGQGLEWMGGIIPIFGTANYAQKFQGRVTITADESTSTAYMELSSLRSEDTAVYYCARGTFTYDFLDYWGQGTLVTVSS VL: EIVLTQSPGTLSLSPGERATLSCRASQSVSSSYLAWYQQKPGQAPRLLIYGASSRATGIPDRFSGSGSGTDFTLTISRLEPEDFAVYYCQQSSRFPWTFGQGTKVEIK | Fab Binding | 1.9e+06 relative chemiluminescence units |
| Fab F102 (VH H2, VL L91) (Fab, V domains shown, Soluble Fab-His) VH: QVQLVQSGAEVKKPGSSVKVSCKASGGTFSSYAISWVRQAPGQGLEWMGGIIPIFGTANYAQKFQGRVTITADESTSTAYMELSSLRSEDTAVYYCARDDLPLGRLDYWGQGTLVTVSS VL: EIVLTQSPATLSLSPGERATLSCRASQSVADWLAWYQQKPGQAPRLLIYKASNRATGIPARFSGSGSGTDFTLTISSLEPEDFAVYYCQQSFRWPLTFGQGTKVEIK | Fab Binding | 1.3e+06 relative chemiluminescence units |

Could you now consider this next binder?
Please give the documented Fab Binding of Fab F116 (VH H108, VL L100) (Fab, V domains shown, Soluble Fab-His) VH: QVQLVQSGAEVKKPGSSVKVSCKASGGTFSSYAISWVRQAPGQGLEWMGGIIPIFGTANYAQKFQGRVTITADESTSTAYMELSSLRSEDTAVYYCARSDLNNVSTVLDYWGQGTLVTVSS VL: DIQMTQSPSSLSASVGDRVTITCRASQSIGKVLNWYQQKPGKAPKLLIYGASSLQSGVPSRFSGSGSGTDFTLTISSLQPEDFATYYCQQPISTPLTFGQGTKVEIK 1.9e+06 relative chemiluminescence units
